# Test system: 786-0
# experimentSummary: NCI tumour cell line growth inhibition, 48 h
Activity calls are given as the source filed them. Cut-off read from the data, not from the text of the source: active = GI50 up to about 1.1 µM and inactive = higher. Residues, ends and D or L forms follow the SMILES beside them. *: point of attachment. Boc = CC(C)(C)OC(=O)*; OBn = c1ccc(CO*)cc1
In this section we review reported GI50 values for a set of compounds.

compound	GI50
COc1cc(/C=N/n2c(-c3ccccc3)nn(C(C)=O)c2=O)cc(OC)c1OC	4.36 µM (inactive)
COC(=O)C1CCC(=O)N1CN(C(C)=O)c1cc(OC)ccc1OC (centres undefined)	> 100 µM (inactive)
Clc1ccc2c(c1)CC1C[N+]3=C(CCCCC3)C1=C2 (centres undefined)	> 100 µM (inactive)
COc1ccc(NC(=S)N/N=C(\C)c2nc3cccnc3[nH]2)cc1	4.99 µM (inactive)
S=C1NC2=C(COC/C2=C\c2ccccc2Cl)C(c2ccccc2Cl)N1 (centres undefined)	36 µM (inactive)
C[C@]12CCC(=O)C=C1CC[C@@H]1[C@@H]2[C@@H](O)C[C@@]2(C)[C@H]1CC[C@]2(O)C(=O)CO [HYDROCORTISONE]	> 100 µM (inactive)
O=C(OC1CN2CCC1CC2)N(c1ccccc1)c1ccccc1 (centres undefined)	> 100 µM (inactive)
CC(C)C(NC(=O)C(Cc1ccccc1)NC(=O)OC(C)(C)C)C(=O)NCC(=O)OCc1ccccc1 (stereo not drawn) (Boc-Phe-Val-Gly-OBn; configuration not given here)	17.9 µM (inactive)
CCOC(=O)c1nc2cc(C(F)(F)F)ccc2nc1Oc1ccc(F)cc1	> 100 µM (inactive)

====

In this section we review reported GI50 values for a set of compounds.
# System: OVCAR-4
# experimentSummary: NCI tumour cell line growth inhibition, 48 h
Active and inactive are the calls of the source. Cut-off read from the data, not from the text of the source: active = GI50 up to about 1.1 µM and inactive = higher.
quantityKind: GI50

compound	result
CN(C)CC1CCC/C(=C\c2ccc(OC(=O)/C=C/c3ccccc3)cc2)C1=O (stereo not drawn)	2.35 µM (inactive)
CC(C)(C)OC(=O)/C=C/[C@@H](CCC(=O)/C=C/[C@H](/C=C\CCCC(=O)O)NC1(c2ccccc2)c2ccccc2-c2ccccc21)O[Si](C)(C)C(C)(C)C	17.1 µM (inactive)
COC(=O)[C@@]12OC[C@]34C([C@@H](O)C1O)[C@@]1(C)CC(=O)C(OC(=O)/C=C(/c5ccccc5)C(F)(F)F)=C(C)C1C[C@H]3OC(=O)[C@H](O)[C@H]42 (stereo partly drawn)	17.7 µM (inactive)

====

# Test system: 786-0
# experimentSummary: NCI tumour cell line growth inhibition, 48 h
Counter-ions that a name gives are not always drawn. The source made the active and inactive calls. Cut-off read from the data, not from the text of the source: active = GI50 up to about 1.1 µM and inactive = higher.
quantityKind: GI50

> print(dat)
                                    compound                result
 1  O=C1c2ccccc2C(=O)c2c(NC(=O)C3CC3)ccc(NC(=O)C3CC3)c21    61.7 µM (inactive)
 2  NC(=O)N/N=C(/Cc1nc2ccc(C(=O)c3ccccc3)cc2nc1O)C(=O)Nc1ccc(C(F)(F)F)cc1[N+](=O)[O-]   > 100 µM (inactive)
 3  CC1CC[C@@]2(OC1)OC1C[C@H]3[C@@H]4CCC5CC(O)CC[C@]5(C)[C@H]4C/C(=N\N(C)C)[C@]3(C)C1[C@@H]2C (stereo partly specified)    20.3 µM (inactive)
 4  c1ccc2oc(-c3ccc(-c4nc5ccccc5o4)c4c3CC4)nc2c1   > 100 µM (inactive)
 5  O=C(CC(C(=O)c1ccsc1)c1cccs1)c1ccccc1 (stereo unspecified)   > 100 µM (inactive)
 6  COc1cc2c(c(OC)c1OC)C(=O)[C@H](O)[C@H]2NC(N)=O   > 100 µM (inactive)
 7  O=C(/C=C1\C[C@H]2C=Nc3ccccc3C(=O)N2C1)NCCCNC(=O)/C=C1\C[C@H]2C=Nc3ccccc3C(=O)N2C1    3.03 µM (inactive)
 8  CC1=C(C(=O)Nc2ccc(Cl)c(Cl)c2)C(c2ccco2)C(C(=O)Nc2ccc(Cl)c(Cl)c2)=C(C)N1      13 µM (inactive)
 9  Cc1sc(NC=C2C(=O)CC(C)(C)CC2=O)nc1-c1ccccc1   > 100 µM (inactive)
10  CC(C)C1CC(CO)(CNc2nc(N)nc(Cl)c2/C=N\O)C1 (stereo unspecified)    18.2 µM (inactive)
11  COc1ccc(NC(=O)CC(=O)N2N=C(N3CCCCC3)CC2c2ccccc2)cc1 (stereo unspecified)   > 100 µM (inactive)
12  O=C1CC2CCCC23CC2(CCN13)OCCO2 (stereo unspecified)   > 100 µM (inactive)
13                       N#CCC(=O)Nc1ccccc1O   > 100 µM (inactive)
14                        CNC(=S)NN=C1NCCCN1   > 100 µM (inactive)
15  Cc1ccnc(NC(=S)Nc2ccc([N+](=O)[O-])cc2)c1    75.3 µM (inactive)
16  Cn1c(COC(=O)Nc2ccccc2)c(COC(=O)Nc2ccccc2)c2ccc3cc(Cl)c(Cl)cc3c21    2.76 µM (inactive)
17                                   O=[As]O  > 57.3 µM (inactive)
18            Nc1ccc(/C=C/c2ccnc3ccccc23)cc1    18.6 µM (inactive)
19  CC[C@@H]1CC[C@@H]2[C@H](CC[C@]3(C)[C@@H](O)CC[C@@H]23)[C@H]1C(=O)O   > 100 µM (inactive)
20              O=C(/C=C/c1ccccc1O)c1ccccc1O   > 100 µM (inactive)
21  CC(=O)Nc1ccc2cc3c(nc2n1)c1cccnc1n3S(=O)(=O)c1ccccc1    8.02 µM (inactive)
22  COc1ccc2cc3[n+](cc2c1OC)CCc1cc2c(cc1-3)OCO2 [BERBERINE SULFATE]    51.5 µM (inactive)
23      O=C(/C=C/c1ccc(O)cc1)c1ccc2c(c1)OCO2      18 µM (inactive)
24   Cc1ccc(C(=O)/C=C2\Nc3ccccc3SC2=O)c(C)c1    26.2 µM (inactive)
25  C/C(=N/NC(=O)c1ccncc1)c1ccc(NC(=O)C(=O)Nn2c(S)nc3ccccc3c2=O)cc1   > 100 µM (inactive)
26  CCCCOC(=O)N[C@H]1CCc2cc(OC)c(OC)c(OC)c2-c2ccc(SC)c(=O)cc21    < 0.01 µM (active)
27  CO[C@@H](c1ccccc1)[C@H](O)[C@@](O)(c1ccccc1)P(=O)(OC)OC   > 100 µM (inactive)
28  CC(C)N(/C(F)=N\C(=O)Nc1ccccc1C(F)(F)F)C(C)C      69 µM (inactive)
29          CC(C)(C)C(=O)C(C#N)C(=O)C(C)(C)C   > 100 µM (inactive)
30  O=C(Nc1ccc(Cl)cc1)NS(=O)(=O)c1c(-c2ccccc2)oc2ccccc2c1=O   > 100 µM (inactive)
31  O=C(O)c1ccccc1CC1Cc2ccccc2C1=O (stereo unspecified)   > 100 µM (inactive)
32  Cc1ccsc1C(=O)C(CC(=O)c1cccs1)c1ccsc1 (stereo unspecified)   > 100 µM (inactive)
33  O=C(n1c(=O)n(-c2ccc([N+](=O)[O-])cc2)c(=O)n1C(=O)C(Cl)(Cl)Cl)C(Cl)(Cl)Cl   > 100 µM (inactive)
34         Cc1c(C)c2cc3c(=O)ccoc3c(C)c2oc1=O   > 100 µM (inactive)
35       Cc1nc2sccn2c1C(=O)N/N=C1\SCC(=O)N1C   > 100 µM (inactive)
36  CN(COC(=O)c1ccccc1)c1nc(N(C)COC(=O)c2ccccc2)nc(N(C)COC(=O)c2ccccc2)n1    11.4 µM (inactive)
37  O=c1c2ccccc2nc2n1NC(c1c(Cl)cccc1Cl)N2c1cccc(Cl)c1 (stereo unspecified)     2.1 µM (inactive)
38  O=C(Nn1c(-c2cccs2)nc2ccc(I)cc2c1=O)c1ccccc1    43.2 µM (inactive)
39  CC(=O)N(C(C)=O)C1=C2c3ccccc3N(S(=O)(=O)c3ccccc3)C2n2c(=O)n(-c3ccccc3)c(=O)n2C1 (stereo unspecified)    38.6 µM (inactive)
40  COc1c(-c2cc(C)c(Cl)c(=O)[nH]2)c(O)c(OC)c2occc12   > 100 µM (inactive)
41   O=C(O)CCCSC(=O)Nc1ccc(/N=N/c2ccccc2)cc1   > 100 µM (inactive)
